# System: UACC-257
# assay overview: NCI tumour cell line growth inhibition, 48 h
Calls of active or inactive are those of the source. No stated cut-off is given here; in the data, active = GI50 up to about 1.1 µM and inactive = higher.
measurement label: GI50

Reference set, count: 2
Query string: // lookup GI50 for CC(=O)Oc1ccc2cc(Oc3ccc(Cl)c(Cl)c3)c(=O)oc2c1
Result string: 25.1 µM (inactive)

Query string: Requested read-out: GI50. Entry: Nc1ncnc2c1ncn2-c1ccc([N+](=O)[O-])cn1
Result string: > 100 µM (inactive)

Below are some compounds; for each one, tell me its GI50.
1. CC1=C(C(=O)NCCCN(CCO)CCO)CC(C(=O)NCCCN(CCO)CCO)=C(C)N1
2. Cc1ccc2c(c1)[nH]c(=S)n2C=C(C(N)=O)C(N)=O
3. O=S(=O)(O)c1ccc(/N=N/c2ccccc2)cc1

Result string:
1. > 100 µM (inactive)
2. > 100 µM (inactive)
3. > 100 µM (inactive)
